# Tested on: ALS enzyme extracted from Mutant 7 (heterozygous)
# TEST NAME: ALS enzyme assay, heterozygous Mutant 7
# Assay type: biochemical, Zea mays
# ASSAY SETUP: fold increase in resistance vs wild type, heterozygous Mutant 7; 30 min
Would you mind telling me the reported Fold Increase of each entry?
Answer using only a numeral; do not append any unit.

For record CC(C)C1(C)N=C(c2ncccc2C(=O)O)NC1=O (stereo not drawn) the listed Fold Increase is 3

For record CC(C)C1(C)N=C(c2nc3ccccc3cc2C(=O)O)NC1=O (stereo not drawn) the listed Fold Increase is 2

For record CCc1cnc(C2=NC(=O)C(C)(C(C)C)N2)c(C(=O)O)c1 (stereo not drawn) the listed Fold Increase is 3

For record COC(=O)c1sccc1S(=O)(=O)NC(=O)Nc1nc(C)nc(OC)n1 the listed Fold Increase is 1

For record COc1nc(C)nc(NC(=O)NS(=O)(=O)c2ccccc2Cl)n1 the listed Fold Increase is 1

For record COc1cc(Cl)nc(NC(=O)NS(=O)(=O)c2ccccc2C(=O)O)n1 the listed Fold Increase is 1

----------
# SYSTEM UNDER TEST: ALS enzyme extracted from Mutant 2 (heterozygous)
# TEST NAME: ALS enzyme assay, heterozygous Mutant 2
# ASSAY SETUP: ALS of heterozygous Mutant 2; read-out: ID50% (the source's name)
Would you mind telling me the reported IC50 of each entry?
Output spec: scalar in µM, unitless text.

For record CC(C)C1(C)N=C(c2ncccc2C(=O)O)NC1=O (stereo not drawn) the listed IC50 is 540

For record COc1cc(Cl)nc(NC(=O)NS(=O)(=O)c2ccccc2C(=O)O)n1 the listed IC50 is 0.01

For record CCc1cnc(C2=NC(=O)C(C)(C(C)C)N2)c(C(=O)O)c1 (stereo not drawn) the listed IC50 is 230

For record COC(=O)c1sccc1S(=O)(=O)NC(=O)Nc1nc(C)nc(OC)n1 the listed IC50 is 0.32

For record CC(C)C1(C)N=C(c2nc3ccccc3cc2C(=O)O)NC1=O (stereo not drawn) the listed IC50 is 20

For record COc1nc(C)nc(NC(=O)NS(=O)(=O)c2ccccc2Cl)n1 the listed IC50 is 0.065

----------
# Test system: ALS enzyme extracted from Mutant 9 (heterozygous)
# TEST NAME: ALS enzyme assay, heterozygous Mutant 9
# Assay type: biochemical, Zea mays
# ASSAY SETUP: Mutant 9; groups Strong, Intermediate, Weak, Zero
RECORDED ENDPOINT: resistance group, Enzyme Assay

For record COC(=O)c1sccc1S(=O)(=O)NC(=O)Nc1nc(C)nc(OC)n1 the listed resistance group, Enzyme Assay is Weak

For record COc1cc(Cl)nc(NC(=O)NS(=O)(=O)c2ccccc2C(=O)O)n1 the listed resistance group, Enzyme Assay is Weak

For record CC(C)C1(C)N=C(c2nc3ccccc3cc2C(=O)O)NC1=O (stereo not drawn) the listed resistance group, Enzyme Assay is Strong

For record CCc1cnc(C2=NC(=O)C(C)(C(C)C)N2)c(C(=O)O)c1 (stereo not drawn) the listed resistance group, Enzyme Assay is Strong

For record CC(C)C1(C)N=C(c2ncccc2C(=O)O)NC1=O (stereo not drawn) the listed resistance group, Enzyme Assay is Strong

---
For record COc1nc(C)nc(NC(=O)NS(=O)(=O)c2ccccc2Cl)n1 the listed resistance group, Enzyme Assay is Weak
